- target_entity: Sodium/potassium-transporting ATPase
- protocol_description: In vitro evaluation for its ability to inhibit the Na+/K+ ATPase at pH 7.4.
- Format: protein-complex assay, Canis lupus familiaris
Decide by -Log IC50: equal to or exceeding 4 means t, less means f.

Please review the entries below; each comes with its answer.
compound: COc1cc2[nH]c([S+]([O-])Cc3nccc(OC)c3OC)nc2cc1OC(F)F (configuration not stated)
group: f

compound: COc1ccnc(C[S+]([O-])c2nc3cc(OCC(F)(F)F)ccc3[nH]2)c1OC (configuration not stated)
group: f

compound: COc1cnc(C[S+]([O-])c2nc3cc4c(cc3[nH]2)OC(F)(F)O4)c(C)c1OC (configuration not stated)
group: f

compound: COc1ccnc(C[S+]([O-])c2nc3cc(OC(F)(F)C(F)F)ccc3[nH]2)c1OC (configuration not stated)
group: f

compound: COc1cc2[nH]c([S+]([O-])Cc3nccc(OC)c3C)nc2cc1OC(F)F (configuration not stated)
group: t

compound: COc1cnc(C[S+]([O-])c2nc3cc(OC(F)F)ccc3[nH]2)cc1OC (configuration not stated)
group: f

compound: COc1ccnc(C[S+]([O-])c2nc3cc(F)c(OC(F)F)cc3[nH]2)c1OC (configuration not stated)
group: f

compound: COc1ccnc(C[S+]([O-])c2nc3cc4c(cc3[nH]2)OC(F)(F)O4)c1 (configuration not stated)
group: f

compound: COc1ccnc(C[S+]([O-])c2nc3cc(OC(F)(F)C(F)F)ccc3[nH]2)c1C (configuration not stated)
group: t

compound: COc1ccnc(C[S+]([O-])c2nc3cc(OC(F)F)ccc3[nH]2)c1OC (configuration not stated)
group: f

Please find the next compound below.
Given the entry COc1cnc(C[S+]([O-])c2nc3cc4c(cc3[nH]2)OC(F)(F)O4)cc1OC (configuration not stated) , answer whether its -Log IC50 meets or surpasses 4.
f

---

half-life overview
- protocol_description: t1/2 (pH 3)
- Type: ADME
Report field: quantity (unit follows the number).

Value lookup for half-life; key = COc1ccnc(C[S+]([O-])c2nc3cc(OC(F)(F)C(F)F)ccc3[nH]2)c1C (centres undefined)
5 min

Value lookup for half-life; key = COc1ccnc(C[S+]([O-])c2nc3cc4c(cc3[nH]2)OC(F)(F)O4)c1 (centres undefined)
20 min

Value lookup for half-life; key = COc1cc(C[S+]([O-])c2nc3cc(OC(F)(F)C(F)F)ccc3[nH]2)ncc1C (centres undefined)
6 min

Value lookup for half-life; key = COc1cnc(C[S+]([O-])c2nc3cc(OC(F)F)ccc3[nH]2)c(C)c1OC (centres undefined)
12 min

Value lookup for half-life; key = COc1cnc(C[S+]([O-])c2nc3cc(OC(F)F)ccc3[nH]2)cc1OC (centres undefined)
17 min

Value lookup for half-life; key = COc1ccnc(C[S+]([O-])c2nc3cc(OC(F)(F)C(F)F)ccc3[nH]2)c1 (centres undefined)
10 min

Value lookup for half-life; key = COc1ccnc(C[S+]([O-])c2nc3cc4c(cc3[nH]2)OC(F)(F)O4)c1C (centres undefined)
10 min

Value lookup for half-life; key = COc1ccnc(C[S+]([O-])c2nc3cc(OC(F)F)ccc3[nH]2)c1 (centres undefined)
10 min

Value lookup for half-life; key = COc1ccnc(C[S+]([O-])c2nc3cc(OC(F)F)ccc3[nH]2)c1OC (centres undefined)
9 min

Each recorded value in this set is attributed to ChEMBL document CHEMBL1125404.
